Provide the reported protein stability index of each item.
- measurement.description: protein stability index of a GFP-peptide fusion (yeast GPS) (PSI 1-4); higher = more stable; sorted into four equal gates, so the index is relative within each strain
- condition: san1∆
One number for each entry.

Some solved entries appear below for comparison.
1. NLKYLDNSNVMTVKLES [RGR1] ... 2.04
2. PKFGVEGLIRLDNLTED [DIS3] ... 3.08
3. VDIKGEDLHEKNDSAEV [NUT1] ... 2.93

Inquiry: State, in one line, measured protein stability index of VMWGKVTRTHGNSGVVR [RPL33A]
Reply text: 2.97

====

- measurement.description: protein stability index of a GFP-peptide fusion (yeast GPS) (PSI 1-4); higher = more stable; sorted into four equal gates, so the index is relative within each strain
- condition: pdr5∆
Provide the reported protein stability index of each item.
Numbers only.

1. SSAAILGLGIAFAGSKN [RPN1] ... 1.94
2. PYNLNLFPNELYNVMGI [RPC31] ... 2.52
3. NKAQAKMDKRAKTSDSA [RPL8B] ... 3.02
4. TLDYAERHGYIRGIVKQ [RPL2A] ... 1.71
5. LSHIVYFLVLSPYGNLQ [RPN5] ... 1.33
6. FSFTEPAQKDSSVVSEP [YOR098C/NUP1] ... 3.11

I need protein stability index for every entry listed below, if you could help.
1. VEYKLTFVPTNSDKPRD [DIS3]
2. TTAEPKAKRAKTGSAST [TAF14]

Reply text:
1: 1.31; 2: 3.14

====

- measurement.description: protein stability index of a GFP-peptide fusion (yeast GPS) (PSI 1-4); higher = more stable; sorted into four equal gates, so the index is relative within each strain
- condition: ubr1∆
measure.name: protein stability index
Give bare numbers.

1. VCLMQISTRERDYLVDT [RRP6] ... 2.99
2. KISDDELERILKELSNL [RPB4] ... 3
3. SKMLDAASSQVSIVKLD [SNF12] ... 2.95
4. TIKVAGTPLLEVRGQVP [SNU114] ... 2.98
5. QEDELDEGTALSRLGLK [RPB10] ... 3.06

Let us move to another entry and its protein stability index.
Inquiry: State, in one line, measured protein stability index of INGWKFESLPLKSAENS [SWP82]
Reply text: 3.03

====

- measurement.description: protein stability index of a GFP-peptide fusion (yeast GPS) (PSI 1-4); higher = more stable; sorted into four equal gates, so the index is relative within each strain
- condition: ubr1∆
Provide the reported protein stability index of each item.
Give bare numbers.

1. YGNDEEVLFYEDNYNPK [RPN4] ... 2.96
2. PILAPSVKDYRPAEETE [RPS3] ... 2.92
3. KKNLGRLTRLWIKNEQE [PRP8] ... 2.5
4. ALAFGYVKSLHKQISAE [SIN4] ... 2.32

I need protein stability index for every entry listed below, if you could help.
1. MMVNISVLISIPLDNYD [PCI8]
2. SNEAAKPSFSFPGKPVD [YOR098C/NUP1]
3. AAAVSGNNASDEPSRKK [SSN3]

Reply text:
[1.41, 2.95, 3.05]

I need protein stability index for every entry listed below, if you could help.
1. RIENPEKYAAAAPAATS [RPP0]
2. APVETKKKRFEIKKWTA [HRT1]
3. TLAITTVTNSKFRSSIL [RPN2]
4. VIFKIRDRTSGQKLLAI [SRB4]
5. GEKIDSNKPIFLFAPEL [SWI1]
6. DYLKNIIVENSGTSGDE [RPN2]
7. LREYLNLPEHIVPGTYI [RPS10A]
8. NYSSESYRNAFTNVLTK [YJL039C/NUP192]

Reply text:
3.16
3.27
2.52
3.33
2.91
3.29
2.75
2.48

I need protein stability index for every entry listed below, if you could help.
1. IAQGIDLVRDIDIDKLI [SRP72]
2. ERVTALKNCKISNINIP [SMC1]

Reply text:
1. 1.1
2. 3.41

====

- measurement.description: protein stability index of a GFP-peptide fusion (yeast GPS) (PSI 1-4); higher = more stable; sorted into four equal gates, so the index is relative within each strain
- condition: san1∆
Provide the reported protein stability index of each item.

1. QSALSQIIRLFYSKNRL [ISW2] ... 1.87
2. DRGLSIKLNGSTLLCTD [SNU114] ... 2.34
3. PKILIREHERVILKQIL [SWP82] ... 3.18
4. AGRGFTLAEVKAAGLTA [RPL13A] ... 1.56
5. LTHSTPKNFGIGQAVQP [RPL8A] ... 3.02

I need protein stability index for every entry listed below, if you could help.
1. QGSVTVGLRSNTHAVLV [PRE5]
2. QTIMKMGPLSNIAQMIP [SRP54]
3. RRTYNTLEDKFLLLAVN [ISW2]
4. KPGSIDAISQVINIAKA [FAS1]
5. LGGEINDNEDDDEEYDY [BRR2]
6. LKEDDSSLYEASLNALK [RPN1]
7. YEADQRKLFPNWIKPSD [PRP8]
8. IKEFVDDLKKDHIAIDW [DSN1]

Reply text:
[1.75, 2.58, 1.18, 2.61, 3.28, 3.5, 2.67, 2.73]

I need protein stability index for every entry listed below, if you could help.
1. SYALSMEKDKLKNLLRS [SNU114]
2. RNFKKANLVNKESDLLE [BRN1]
3. QILQGICKNCSAILLSE [RPO31]

Reply text:
2.31
1.64
2.26

I need protein stability index for every entry listed below, if you could help.
1. GTQMTLKTFHFAGVASM [RPO31]
2. KPYYFSNNHKLSESDKK [RPN12]
3. NDTLPDEISPELLSKYK [SNU114]
4. SVLYQLSTSAFMEIVLE [YML031W/NDC1]
5. KGLKENDVAVEKTGKSA [BRR2]
6. EFEYDDEPDEQGNPKKR [CYT1]
7. SKLLYDDVTCDKLSVSE [SIN4]
8. DLKKFTSTITKYKQLLL [RPN3]

Reply text:
[1.68, 1.33, 3.03, 2.07, 2.73, 3.04, 2.86, 2.91]

====

- measurement.description: protein stability index of a GFP-peptide fusion (yeast GPS) (PSI 1-4); higher = more stable; sorted into four equal gates, so the index is relative within each strain
- condition: pdr5∆
measure.name: protein stability index
Numbers only.

Some solved entries appear below for comparison.
1. FLKLYVLVKWTRTIKQN [RGR1] ... 1.85
2. EQVAEEAAAAEEGEEEE [RPS0B] ... 3.33
3. STKSNKAKNPLTHSTPK [RPL8B] ... 2.83
4. NNQQRLLLKKLDNFQKS [SMC3] ... 2.64
5. APHDSEATLLTNSNNGS [SNF5] ... 2.85

I need protein stability index for every entry listed below, if you could help.
1. QSDLEIITQYVFESLEI [ARP9]
2. IRQAIAKGLVAYHQKYV [RPS16A]
3. IASLERELILAKKQNYK [YCG1]
4. GPPYTTDEHLIFNSGKM [ISW2]
5. QVVVDAITNTGPREDTT [RPS5]

Reply text:
1: 3.12; 2: 1.27; 3: 3.07; 4: 3.26; 5: 2.95

I need protein stability index for every entry listed below, if you could help.
1. SLIENKKAKLVLIANDV [RPL8B]
2. TIFGGVDKNGAHLYMLE [PRE10]
3. VIFKIRDRTSGQKLLAI [SRB4]
4. QNDELKFQGVLESEAQK [RPC34]

Reply text:
1: 3.23; 2: 2.66; 3: 3.17; 4: 3.21

I need protein stability index for every entry listed below, if you could help.
1. PNTRDAESEAITVTAKQ [SWI3]
2. RNAQAQREAAAEYAQLL [RPS6A]
3. FLTGQFASNKKINDESS [YML103C/NUP188]
4. FLWPFKLSNPSGGWGVP [RPL7A]

Reply text:
1. 3.23
2. 3.31
3. 2.23
4. 2.85

====

Provide the reported protein stability index of each item.
- measurement.description: protein stability index of a GFP-peptide fusion (yeast GPS) (PSI 1-4); higher = more stable; sorted into four equal gates, so the index is relative within each strain
- condition: san1∆
One number for each entry.

1) MAYTSHLSSKTGLHFGR [QCR10] ... 2.69

I need protein stability index for every entry listed below, if you could help.
1. DDIFIRYLTLLSNEFTA [ECM29]
2. SDAMSIDEEDKDSESFS [YCG1]
3. LDEMELHPYNSRGLFEK [YDL116W/NUP84]

Reply text:
1: 2.44; 2: 2.61; 3: 2.86
